tested-target: UniProt P30405
Sequence (P30405 30-207): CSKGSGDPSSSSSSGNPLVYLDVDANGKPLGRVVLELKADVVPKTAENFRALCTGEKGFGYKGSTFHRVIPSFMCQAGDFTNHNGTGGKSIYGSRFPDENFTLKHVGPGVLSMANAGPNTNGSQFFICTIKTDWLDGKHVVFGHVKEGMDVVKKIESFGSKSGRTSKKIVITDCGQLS
pKd: −log10 of the molar value.
# pKd per entry
property: pKd

{"columns": ["molecule", "value"],
 "data": [
  ["Nc1ccc(CCNC(=O)CN2C(=O)C3CCCCC3C2=O)cc1 (stereo not drawn) [Compound 7]", "3.70 to 5.00"],
  ["Nc1ccc(CNC(=O)CN2C(=O)C3C4CCC(O4)C3C2=O)cc1 (stereo not drawn) [Compound 8]", "3.70 to 5.00"],
  ["Nc1ccc(CCNC(=O)CN2C(=O)[C@@H]3[C@@H]4CC[C@@H](C4)[C@@H]3C2=O)cc1 [Compound 10]", "3.70 to 5.00"],
  ["Nc1ccc(C2(NC(=O)CN3C(=O)[C@@H]4[C@@H]5CC[C@@H](C5)[C@@H]4C3=O)CC2)cc1 [Compound 5]", "3.70 to 5.00"],
  ["O=C(CN1C(=O)[C@@H]2[C@@H]3CC[C@@H](C3)[C@@H]2C1=O)NCc1ccc2c(c1)[C@H]1C[C@@H](N2)[C@H](O)CO1 [Compound 3]", "> 5.00"],
  ["CCC1Oc2cc(C(C)NC(=O)CN3C(=O)[C@@H]4[C@@H]5CC[C@@H](C5)[C@@H]4C3=O)ccc2NC1=O (stereo partly drawn) [Compound 11]", "3.70 to 5.00"]
]}
